Biological target: human TGR5 (h-TGR5) (Homo sapiens, UniProt Q8TDU6)
Construct: expressed in transfected cells
Sequence (Q8TDU6 1-330): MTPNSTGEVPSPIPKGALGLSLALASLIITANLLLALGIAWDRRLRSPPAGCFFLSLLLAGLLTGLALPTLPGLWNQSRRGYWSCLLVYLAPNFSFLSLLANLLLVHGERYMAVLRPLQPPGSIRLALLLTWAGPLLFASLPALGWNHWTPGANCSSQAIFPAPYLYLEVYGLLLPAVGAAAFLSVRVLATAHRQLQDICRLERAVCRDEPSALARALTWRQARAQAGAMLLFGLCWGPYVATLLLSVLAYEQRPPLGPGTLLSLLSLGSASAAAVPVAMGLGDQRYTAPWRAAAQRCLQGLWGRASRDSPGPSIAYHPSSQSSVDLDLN
Test: TGR5/CRE-Luciferiase Assay (HEK 293 hTGR5/CRE-Luc cells)
Assay type: cell-based
Conditions: h-TGR5 CRE-Luc EC50, Table 1; read-out: CRE-Luc (EC50)
observable: EC50

# structure-smiles-string, reported-value
records = [
    ("COc1cc(C(C)(C)c2cnc(SCc3ccc(S(=O)(=O)NC(=O)NN4CCN(C)CC4)cc3Cl)n2-c2ccc(F)cc2)ccc1Cl", "100 to 1000 nM"),
    ("CC(C)(c1ccc(Cl)c(Cl)c1)c1cnc(SCc2ccc(C(=O)NCC(F)(F)F)cc2F)n1-c1ccc(F)cc1", "100 to 1000 nM"),
    ("COc1cc(C(C)(C)c2c(Cl)nc(SCC3CCN(S(C)(=O)=O)CC3)n2-c2ccc(F)cc2)ccc1Cl", "100 to 1000 nM"),
    ("COc1ccc(C(C)(C)c2cnc(C(=O)N(C)c3c(F)cccc3Cl)n2-c2ccc(F)cc2)cc1OC", "1000 to 10000 nM"),
    ("CN1CCN(c2ccc(CSc3ncc(C(C)(C)c4ccc(Cl)c(Cl)c4)n3-c3ccc(F)cc3)cc2Cl)CC1", "1000 to 10000 nM"),
    ("Cc1cc(-n2c(C(C)(C)c3ccc(Cl)c(Cl)c3)cnc2SCc2ccc(S(=O)(=O)NC(=O)NN3CCCC3)cc2Cl)ccc1F", "100 to 1000 nM"),
    ("CCNC(=O)NS(=O)(=O)c1ccc(CSc2ncc(C(C)(C)c3ccc(Cl)c(OC)c3)n2-c2ccc(F)cc2)c(Cl)c1", "100 to 1000 nM"),
    ("CNS(=O)(=O)c1ccc(C(C)(C)c2cnc(SCc3ccc(F)cc3Cl)n2-c2ccc(F)cc2)cc1", "100 to 1000 nM"),
    ("CC(C)(c1ccc(S(N)(=O)=O)cc1)c1cnc(SCc2c(F)cccc2Cl)n1-c1ccc(F)cc1", "100 to 1000 nM"),
    ("COc1cc(C(C)(C)c2cnc(SCc3ccc(S(=O)(=O)NC(=O)NN4CCCC4)cc3Cl)n2-c2ccc(F)cn2)ccc1Cl", "100 to 1000 nM"),
    ("CC(C)(c1ccc(Cl)c(Cl)c1)c1cnc(SCc2ccc(C(=O)NCCS(=O)(=O)O)cc2F)n1-c1ccc(F)cc1", "100 to 1000 nM"),
    ("CC(C)(c1ccc(O)c(O)c1)c1cnc(SCc2c(F)cccc2Cl)n1-c1ccc(F)cc1", "< 100 nM"),
    ("CC(C)(O)c1cccc(F)c1CSc1ncc(C(C)(C)c2ccc(Cl)c(Cl)c2)n1-c1ccc(F)cc1", "100 to 1000 nM"),
    ("CC(C)(c1ccc(Cl)c(Cl)c1)c1cnc(SCc2ccc(Cl)c(S(N)(=O)=O)c2)n1-c1ccc(F)cc1", "< 100 nM"),
    ("COc1cc(C(C)(C)c2cnc(SCc3c(F)cc(S(N)(=O)=O)cc3F)n2-c2ccc(F)cc2)ccc1Cl", "< 100 nM"),
    ("CN1CCN(c2cc(CSc3ncc(C(C)(C)c4ccc(Cl)c(Cl)c4)n3-c3ccc(F)cc3)ccc2F)CC1", "1000 to 10000 nM"),
    ("CC(C)(c1ccc(Cl)c(Cl)c1)c1cnc(SCc2ccc(C(N)=O)cc2Cl)n1-c1ccc(F)cc1", "100 to 1000 nM"),
    ("COc1ccc(C(C)(C)c2cnc(SCc3cc(-c4nnn[nH]4)c(Cl)cc3Cl)n2-c2ccc(F)cc2)cc1Cl", "< 100 nM"),
    ("CC(C)(c1ccc(Cl)c(Cl)c1)c1cnc(SCc2c(F)cccc2C(=O)O)n1-c1ccc(F)cc1", "100 to 1000 nM"),
    ("CC(C)(c1ccc(Cl)c(Cl)c1)c1cnc(S(=O)(=O)Cc2ccc(F)c(C(F)(F)F)c2)n1-c1ccc(F)cc1", "100 to 1000 nM"),
    ("CC(C)(c1ccc(Cl)c(Cl)c1)c1cnc(SCc2c(F)cc(C(=O)O)cc2F)n1-c1ccc(F)cc1", "< 100 nM"),
    ("CC(C)(Oc1cc(-n2c(C(C)(C)c3ccc(Cl)c(Cl)c3)cnc2SCc2ccc(F)cc2Cl)ccc1F)C(=O)O", "1000 to 10000 nM"),
    ("COc1cc(C(C)(C)c2cnc(SCc3c(F)cc(CCCCCNC(=N)N)cc3F)n2-c2ccc(F)cc2)ccc1Cl", "< 100 nM"),
    ("COc1cc(C(C)(C)c2cnc(SCc3ccc(S(=O)(=O)NC(=O)NN4CCCC4)cc3Cl)n2-c2ccc(F)c(CO)c2)ccc1Cl", "100 to 1000 nM"),
    ("COc1ccc(C(C)(C)c2cnc(SCc3c(Cl)cccc3Cl)n2-c2ccc(F)cc2)cc1OC", "< 100 nM"),
    ("COc1cc(C(C)(C)c2cnc(SCc3ccc(S(=O)(=O)NC(=O)NC4CC4)cc3Cl)n2-c2ccc(F)cc2)ccc1Cl", "< 100 nM"),
    ("CC(C)(O)COc1cc(CSc2ncc(C(C)(C)c3ccc(Cl)c(Cl)c3)n2-c2ccc(F)cc2)ccc1F", "100 to 1000 nM"),
    ("CC(C)(c1ccc(F)c(F)c1)c1cnc(SCc2c(F)cc(C(=O)O)cc2F)n1-c1ccc(F)cc1", "100 to 1000 nM"),
    ("COc1cc(-n2c(C(C)(C)c3ccc(S(N)(=O)=O)c(Cl)c3)cnc2SCc2ccc(C(=O)NCCS(=O)(=O)O)cc2F)ccc1F", "< 100 nM"),
]

* * *

target: human TGR5 (h-TGR5) (Homo sapiens); construct: expressed in transfected cells; test: TGR5/CRE-Luciferiase Assay (HEK 293 hTGR5/CRE-Luc cells); assay type: cell-based; conditions: h-TGR5 CRE-Luc EC50, Table 1; read-out: CRE-Luc (EC50)
observable: EC50

# structure-smiles-string, observable, reported-value
data = [
    ("COc1cc(-n2c(C(C)(C)c3ccc(F)c(F)c3)cnc2SCc2ccc(S(=O)(=O)NC(=O)NN3CCCC3)cc2Cl)ccc1F", "EC50", "0.1 to 1 µM"),
    ("COc1cc(C(C)(C)c2cnc(COc3c(F)cc(C(=O)O)cc3Cl)n2-c2ccc(F)cc2)ccc1Cl", "EC50", "0.1 to 1 µM"),
    ("CC(C)(c1ccc(S(C)(=O)=O)cc1)c1cnc(SCc2c(F)cc(C(=O)O)cc2F)n1-c1ccc(F)cc1", "EC50", "< 0.1 µM"),
    ("COc1cc(-n2c(C(C)(C)c3ccc(S(N)(=O)=O)c(Cl)c3)cnc2SCc2ccc(Cl)c(-c3nnn[nH]3)c2)ccc1F", "EC50", "0.1 to 1 µM"),
    ("CC(C)(c1ccc(Cl)c(Cl)c1)c1nc(CSc2ccc(F)cc2Cl)cn1-c1ccc(F)cc1", "EC50", "1 to 10 µM"),
    ("COc1cc(C(C)(C)c2cnc(SCc3ccnc(N)c3)n2-c2ccc(F)cc2)ccc1Cl", "EC50", "0.1 to 1 µM"),
    ("COc1cc(C(C)(C)c2cnc(SCc3ccc(S(=O)(=O)NC(=O)NN4CCCC4)cc3Cl)n2-c2ccc(F)c(F)c2)ccc1Cl", "EC50", "0.1 to 1 µM"),
    ("CC(C)NC(=O)NS(=O)(=O)c1cc(CSc2ncc(C(C)(C)c3ccc(Cl)c(Cl)c3)n2-c2ccc(F)cc2)ccc1Cl", "EC50", "0.1 to 1 µM"),
    ("CC(C)(c1ccc(Cl)c(Cl)c1)c1cnc(SCc2ccc(OCC(=O)O)c(S(N)(=O)=O)c2)n1-c1ccc(F)cc1", "EC50", "0.1 to 1 µM"),
    ("COc1ccc(C(C)(C)c2cnc(C(=O)N3CCCC3)n2-c2ccc(F)cc2)cc1OC", "EC50", "1 to 10 µM"),
    ("COc1cc(C(C)(C)c2cnc(SCc3ccc(S(=O)(=O)NC(=O)NN4CCCC4)cc3Cl)n2-c2ccc(F)c(C)c2)ccc1Cl", "EC50", "< 0.1 µM"),
    ("CC(C)(c1ccc(F)c(F)c1)c1cnc(SCc2ccc(F)cc2Cl)n1-c1ccc(F)cc1", "EC50", "0.1 to 1 µM"),
    ("CC(C)(O)CNC(=O)c1cc(CSc2ncc(C(C)(C)c3ccc(Cl)c(Cl)c3)n2-c2ccc(F)cc2)ccc1F", "EC50", "0.1 to 1 µM"),
    ("COc1cc(C(C)(C)c2cnc(SCc3ccc(F)c(S(N)(=O)=O)c3)n2-c2ccc(F)cc2)ccc1Cl", "EC50", "< 0.1 µM"),
    ("COc1cc(C(C)(C)c2cnc(SCc3cc(S(N)(=O)=O)c(Cl)cc3F)n2-c2ccc(F)cc2)ccc1Cl", "EC50", "< 0.1 µM"),
    ("COc1cc(C(C)(C)c2cnc(SCc3cc(C(=O)O)ccc3Cl)n2-c2ccc(F)cc2)ccc1Cl", "EC50", "< 0.1 µM"),
    ("CC(C)(c1ccc(Cl)c(Cl)c1)c1cnc(COc2ccc(F)cc2Cl)n1-c1ccc(F)cc1", "EC50", "1 to 10 µM"),
    ("COc1cc(C(C)(C)c2cnc(SCc3c(F)cc(C(=O)NCCS(=O)(=O)O)cc3Cl)n2-c2ccc(F)cc2)ccc1Cl", "EC50", "< 0.1 µM"),
    ("COc1cc(C(C)(C)c2cnc(SCc3c(F)cc(S(=O)(=O)NC(=O)NN4CCOCC4)cc3F)n2-c2ccc(F)cn2)ccc1Cl", "EC50", "0.1 to 1 µM"),
    ("CC(C)(c1ccc(Cl)c(Cl)c1)c1cnc(SCc2ccc(C(=N)N)cc2Cl)n1-c1ccc(F)cc1", "EC50", "0.1 to 1 µM"),
    ("COc1ccc(C(C)(C)c2cnc(S(=O)(=O)CCc3ccc(Cl)c(Cl)c3)n2-c2ccc(F)cc2)cc1OC", "EC50", "< 0.1 µM"),
    ("COc1ccc(C(C)(C)c2cnc(CCc3c(F)cccc3Cl)n2-c2ccc(F)cc2)cc1OC", "EC50", "< 0.1 µM"),
    ("CC(C)n1c(C(C)(C)c2ccc(Cl)c(Cl)c2)cnc1SCc1c(F)cccc1Cl", "EC50", "1 to 10 µM"),
    ("CC(C)(c1ccc(S(N)(=O)=O)c(Cl)c1)c1cnc(SCc2ccc(Cl)c(-c3nnn[nH]3)c2)n1-c1ccc(F)cc1", "EC50", "0.1 to 1 µM"),
    ("CC(C)(c1ccc(Cl)c(S(N)(=O)=O)c1)c1cnc(SCc2c(F)cc(C(=O)O)cc2F)n1-c1ccc(F)cc1", "EC50", "1 to 10 µM"),
    ("COc1cc(-n2c(C(C)(C)c3ccc(Cl)c(Cl)c3)cnc2SCc2ccc(C#CCNC(=N)N)c(C(=O)O)c2)ccc1F", "EC50", "0.1 to 1 µM"),
    ("COc1cc(C(C)(C)c2cnc(SCc3ccc(S(=O)(=O)NC(=O)NCC(C)(C)O)cc3Cl)n2-c2ccc(F)cc2)ccc1Cl", "EC50", "0.1 to 1 µM"),
    ("CC(C)(c1ccc(Cl)c(Cl)c1)c1cnc(SCc2ccc(F)cc2C#N)n1-c1ccc(F)cc1", "EC50", "0.1 to 1 µM"),
    ("CC(C)(c1ccc(Cl)c(Cl)c1)c1cnc(SCc2ccc(C(=O)O)c(Cl)c2)n1-c1ccc(F)cc1", "EC50", "0.1 to 1 µM"),
    ("COc1ccc(Cc2cnc(SCc3ccc(F)cc3Cl)n2-c2ccc(F)cc2)cc1OC", "EC50", "< 0.1 µM"),
    ("CC(C)(c1ccc(Cl)c(Cl)c1)c1cnc(SCc2c(F)cc(C(=O)NCS(=O)(=O)O)cc2F)n1-c1ccc(F)c(Cl)c1", "EC50", "< 0.1 µM"),
]
